# reported EC50_Fold change (Jurkat-NFAT-luciferase activation, normalized to ch147E11E2); entries follow
Target: human CD3 (human, UniProt P07766 23-207; P04234 22-171; P09693 23-182)
Sequence (P07766 23-207, chain 1 of 3): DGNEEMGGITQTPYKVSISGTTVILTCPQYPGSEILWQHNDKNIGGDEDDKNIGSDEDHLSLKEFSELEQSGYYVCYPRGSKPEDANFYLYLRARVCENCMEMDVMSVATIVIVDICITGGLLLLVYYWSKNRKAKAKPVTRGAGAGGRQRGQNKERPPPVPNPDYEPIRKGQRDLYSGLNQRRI
Sequence (P04234 22-171, chain 2 of 3): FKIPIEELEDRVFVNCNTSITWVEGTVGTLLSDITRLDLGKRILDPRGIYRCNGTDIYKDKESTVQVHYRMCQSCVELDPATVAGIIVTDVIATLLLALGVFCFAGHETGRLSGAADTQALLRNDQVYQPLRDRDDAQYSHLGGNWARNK
Sequence (P09693 23-182, chain 3 of 3): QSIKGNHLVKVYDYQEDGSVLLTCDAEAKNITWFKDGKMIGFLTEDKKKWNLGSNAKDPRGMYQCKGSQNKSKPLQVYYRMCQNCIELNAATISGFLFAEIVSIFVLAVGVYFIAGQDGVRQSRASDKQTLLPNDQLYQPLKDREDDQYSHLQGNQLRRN
Assay: cell-based or functional assay
Report the value in fold with no unit label.

binder	measurementUnits	obsValue
ch147E11E2 (antibody, V domains shown) VH: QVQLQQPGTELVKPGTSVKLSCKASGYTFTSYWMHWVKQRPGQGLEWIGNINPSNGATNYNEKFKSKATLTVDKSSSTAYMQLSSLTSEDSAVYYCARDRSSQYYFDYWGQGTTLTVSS VL: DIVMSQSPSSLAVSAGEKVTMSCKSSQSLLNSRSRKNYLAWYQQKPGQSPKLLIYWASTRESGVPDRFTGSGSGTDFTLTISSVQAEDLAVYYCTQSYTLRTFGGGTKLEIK	fold	1

Moving on to the next binder.
Data request: Name the reported EC50_Fold change (Jurkat-NFAT-luciferase activation, normalized to ch147E11E2) value associated with the binder hu147E2-L2H4 (antibody, V domains shown, humanized 147E11E2; also called hu14E2-L2H4) VH: EVQLVQSGAEVKKPGSSVKVSCKASGYTFTSYWMHWVRQAPGQGLEWIGNINPSNGATNYNEKFKSRATLTVDKSTSTAYMELSSLRSEDTAVYYCARDRSSQYYFDYWGQGTTVTVSS VL: DIVMTQSPDSLAVSLGERATINCKSSQSLLNSRSRKNYLAWYQQKPGQSPKLLIYWASTRESGVPDRFSGSGSGTDFTLTISSLQAEDVAVYYCTQSYTLRTFGGGTKVEIK
Data returned: 1.24
